- System: COLO 205 colon
- protocolSummary: NCI-60 one-dose screen, 48 h (100 = growth as untreated, 0 = no growth, -100 = all killed)
- conditionInfo: 10 µM unless noted
About 83,000 compounds went through this panel and 20% of them were active in at least one assay; those are over-represented in the sample as a whole.
experimentalEndpoint: growth (%)
Give the value, in units of %, as a plain number.

| compound | displayUnit | assayResult |
| --- | --- | --- |
| CC(=O)Oc1ccccc1C(=O)N=C1[Se]CCN1C(=O)c1ccccc1OC(C)=O | % | -26.9 |
| CC1(/C=N/NC(N)=S)NC(=O)NC1=O (centres undefined) | % | 98.7 |
| COC(=O)c1ccc2c(C(=Nc3ccc(N(C)C(=O)CN4CCN(C)CC4)cc3)c3ccccc3)c(O)[nH]c2c1 | % | 34 |
| N#Cc1c(-c2ccc(Cl)cc2)csc1NC(=O)Nc1cccc(C(F)(F)F)c1 | % | -0.881 |
| Cn1cc(-c2[nH]c3cc(NC(=O)[C@H](N)C4CCCCC4)cc4c3c2C=NNC4=O)cn1 | % | -78.4 |
| CC(N)C(Cc1ccc(Cl)cc1)c1ccc(Cl)cc1 (centres undefined) | % | -81.2 |
| CCc1nc2cc(F)c(/C=C/C(=O)NO)cc2c(=O)n1CCc1ccccc1 | % | -23.3 |
| CC(C)(C)c1cnc(CSc2cnc(NC(=O)C3CCNCC3)s2)o1 | % | -45.3 |

Give recorded growth with COLO 205 colon for the following compound: COc1ccc(-c2nc(N)ncc2Oc2ccccc2OC)c(O)c1
2.73

Cool, now Nc1ccc(S(=O)(=O)O)c2cc(S(=O)(=O)O)cc(O)c12
105

Cool, now O=C(NOC[C@H](O)CO)c1ccc(F)c(F)c1Nc1ccc(I)cc1F
0.302

Cool, now COc1cc(N2CCC(N3CCN(C)CC3)CC2)ccc1Nc1ncnc(Nc2ccccc2S(=O)(=O)C(C)C)n1
99

Cool, now CNC(=O)c1c(C)oc2cc(Oc3ncnc4cc(OC)c(OC)cc34)ccc12
108

Cool, now C[C@@H]1COC(Nc2ccc3ncnc(Nc4ccc(OCc5nccs5)c(Cl)c4)c3c2)=N1
-9.99

Cool, now Nc1cc2c(cc1Br)-c1c(C(=O)O)cccc1C2O (centres undefined)
96.3

Cool, now FC(F)(F)c1ccc(CNc2ccc(Cc3c[nH]c4ncc(Cl)cc34)cn2)cn1
-72.4

Cool, now CC1=CC2c3oc(-c4ccccc4)c(C(=O)c4ccccc4)c3CNC2C=C1 (centres undefined)
109

Cool, now COc1cnc2c(c1)C(=O)c1c-2n(CCCNC2=NCCS2)c(=O)c2cc(Cl)ccc12
-74.3

Cool, now CN1CCN(c2nc(C3=C(c4c[nH]c5ccccc45)C(=O)NC3=O)c3ccccc3n2)CC1
-2.65

Cool, now CNC(=O)c1cc(Oc2ccc3nc(NC(=O)Nc4ccc(Cl)c(C(F)(F)F)c4)sc3c2)ccn1
23.8

Cool, now CN1CCN(CCCOc2cccc3nc(Nc4ccc(Cl)c(C(F)(F)F)c4)ccc23)CC1
-61.6

Cool, now CC(C)NC[C@@H](C(=O)N1CCN(c2ncnc3c2[C@H](C)C[C@H]3O)CC1)c1ccc(Cl)cc1
20.2

Cool, now O=C(CNc1nc(-c2ccc(Cl)cc2)cs1)Nc1ccc(-c2nc3ccccc3s2)cc1
93.8

###

- Test system: MCF7 breast
- protocolSummary: NCI-60 one-dose screen, 48 h (100 = growth as untreated, 0 = no growth, -100 = all killed)
- conditionInfo: 10 µM unless noted
The panel holds about 83,000 compounds, 20% with a hit somewhere; the sample as a whole holds those more often.
Classes (growth): lower level (below 10%), middle level (10% to below 70%), upper level (70% or more)

Please review the entries below; each comes with its answer.
| molecule | testedOn | discreteLabel |
| --- | --- | --- |
| O=C1C=CC2(NN=C(c3ccccc3)N2c2cccc(Cl)c2)C(Cl)=C1 (centres undefined) | MCF7 breast | upper level |
| CN(C[C@@H]1COCCO1)S(=O)(=O)Nc1ccc2ccc3ncc(-c4cnn(C)c4)cc3c(=O)c2c1 | MCF7 breast | middle level |
| C[C@@H](Oc1cc(C(=O)Nc2ccc(C(=O)N3CCN(C)CC3)cc2)nnc1N)c1c(Cl)ccc(F)c1Cl | MCF7 breast | middle level |
| C=CC(=O)Nc1cc(Nc2nccc(-c3cn(C)c4ccccc34)n2)c(OC)cc1N(C)CCN(C)C | MCF7 breast | lower level |
| CN1C/C=C\CCOc2cccc(c2)-c2ccnc(n2)Nc2cccc(c2)C1 | MCF7 breast | lower level |

State the class of the molecule shown: Cc1cc2c(-c3nc4ccccn4c3N)c(O)c(O)cc2c(O)c1-c1c(C)cc2c(-c3nc4ccccn4c3N)c(O)c(O)cc2c1O
middle level

Cool, now CCCS(=O)(=O)Nc1ccc(F)c(C(=O)c2c[nH]c3ncc(-c4ccc(Cl)cc4)cc23)c1F
middle level

Cool, now CC(=O)CC1CCCC1c1ccc2ccccc2c1 (centres undefined)
upper level

###

- Test system: BT-549 breast
- protocolSummary: NCI-60 one-dose screen, 48 h
- conditionInfo: 10 µM unless noted
The panel holds about 83,000 compounds, 20% with a hit somewhere; the sample as a whole holds those more often. Activity calls are given as the source filed them. Rule for the calls: active = growth percent below 10; inactive = the rest.
Log the outcome using a class from active, inactive

Please review the entries below; each comes with its answer.
| molecule | discreteLabel |
| --- | --- |
| COC(=O)c1[nH]cnc1/N=N/N(C)CCO | inactive |
| FC(F)(F)c1ccc(CNc2ccc(Cc3c[nH]c4ncc(Cl)cc34)cn2)cn1 | inactive |
| COc1ccc2c(CCCc3ccc(Cl)cc3Cl)c3[n+](cc2c1OC)CCc1cc2c(cc1-3)OCO2 | active |
| CSC1=C(N)C(=O)c2[nH]cc(CO)c2C1=N | active |
| C[C@H](NC(=O)c1c(N)nn2cccnc12)c1cc2cccc(C#Cc3cnn(C)c3)c2c(=O)n1-c1ccccc1 | active |

Field: outcome | Entry: COc1c(C(NC(=O)c2ccccc2)c2sccc2C)cc(Cl)c2cccnc12 (centres undefined)
inactive

Cool, now C[C@@H](Oc1cc(-n2cnc3ccc(CN4CCN(C)CC4)cc32)sc1C(N)=O)c1ccccc1C(F)(F)F
inactive

Cool, now Cn1cc(-c2ccc(F)c(C(F)(F)F)c2)nc1C1CCN(c2ncnc3[nH]ncc23)CC1
inactive

Cool, now CN(c1ncccc1CNc1nc(Nc2ccc3c(c2)CC(=O)N3)ncc1C(F)(F)F)S(C)(=O)=O
active

###

- Tested on: SK-OV-3 ovarian
- protocolSummary: NCI-60 one-dose screen, 48 h (100 = growth as untreated, 0 = no growth, -100 = all killed)
- conditionInfo: 10 µM unless noted
This is part of a sample that, as a whole, favours compounds with a hit. Of some 83,000 tested, about 20% had one in any assay.
experimentalEndpoint: growth (%)
Give the value, in units of %, as a plain number.

Known results for molecules:
| molecule | displayUnit | assayResult |
| --- | --- | --- |
| CC(CCCC(=O)O)c1ccoc1 (configuration not stated) | % | 95.1 |
| COC(=O)[C@@H](NC(=O)[C@@H](OC)[C@@H]1Cc2cc3cc(OC4CC(OC5CC(O)C(O)C(C)O5)C(O)C(C)O4)c(C)c(O)c3c(O)c2C(=O)[C@H]1OC1CC(OC2CC(OC3CC(C)(O)C(O)C(C)O3)C(O)C(C)O2)C(O)C(C)O1)C(C)C (some centres not stated) | % | 20.4 |
| C=C1CC[C@@H]2[C@](C)(COC(C)=O)[C@H](OC(C)=O)CC[C@@]2(C)[C@@H]1C/C=C1/C(=O)OC[C@H]1OC(C)=O | % | 101 |

Which measured growth value corresponds to Cc1ccc(NC(=O)Nc2ccc(Nc3ncnc4sc5c(c34)CCOC5)cc2)cc1Cl ?
73.4

###

- Tested on: OVCAR-5 ovarian
- protocolSummary: NCI-60 one-dose screen, 48 h (100 = growth as untreated, 0 = no growth, -100 = all killed)
- conditionInfo: 10 µM unless noted
This is part of a sample that, as a whole, favours compounds with a hit. Of some 83,000 tested, about 20% had one in any assay.
Below, each entry is listed alongside its reported growth.
Give the value, in units of %, as a plain number.

Which measured growth value corresponds to CC(C)CC(=O)Nc1n[nH]c2c1CN(C(=O)C1CCN(C)CC1)C2(C)C ?
8.63

Cool, now CC(C)c1cc(CNc2nc(Nc3cc(C4CC4)[nH]n3)cc(N3CCN(C)CC3)n2)on1
18.5

Cool, now COc1ccc2c(c1)cn1c3ccc(O)cc3nc(N)c21
38.3

Cool, now C[C@H](NC(=O)c1c(N)nn2cccnc12)c1cc2cccc(C#Cc3cnn(C)c3)c2c(=O)n1-c1ccccc1
45.1

Cool, now O=[N+]([O-])c1cc(Br)cc2c1[nH]c1ccc(Br)cc12
80.4
